Reference source for all entries: PubChem BioAssay AID624330

# measured_on: Rac GTPase-activating protein 1 (Homo sapiens)
# assay_comment: blockers of MgcRacGAP-driven Rac1 GTP hydrolysis – biochemical, ADP Hunter fluorescence, primary and confirmatory, confirmation (AID 624330);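 note: fluorescence reports GDP produced by GAP-driven GTP hydrolysis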
# condition_set: MgcRacGAP-stimulated Rac1 GTP hydrolysis, at 30 µM, hits give high values, GST-tagged Rac1 F28L mutant substrate
The campaign covered roughly 340,000 compounds. About 2,100 (0.62%) were called active. The list is a sample of the results. Potency and affinity values are given separately.
Quick reference: inhibition of the listed items.
// units = %; emit number, no label

compound	units_label	reported_result
CCN1C/C(=C/c2ccc(OC)c(O)c2)C(=O)/C(=C/c2ccc(OC)c(O)c2)C1	%	8.1
CN1CCN(CCOc2ccc(Cc3ccccc3)cc2)CC1	%	10.6
COc1ccc(/C=C2\CC/C(=C\c3ccc(OC)c(OC)c3)C2=O)cc1OC	%	4.49
CCOc1cc(/C=C2/C(=O)ON=C2C)ccc1O	%	21.6
C=CCn1c(=S)[nH]c2sc3c(c2c1=O)CCC3	%	14.3
O=C(CCn1nc(-c2ccc(Cl)cc2)ccc1=O)N1CCN(c2ccccc2)CC1	%	11.2
COc1ccc(OCCOCCN2CCc3ccccc3C2)cc1	%	28.9
CCOc1ccc(OCCN2CCCCC2)cc1	%	19.4

The compound CCOc1ccc(-n2c(=O)[nH]c3sc4c(c3c2=O)CCCC4)cc1 showed inhibition equal to 12.1

The compound O=C(c1cccc(S(=O)(=O)N2CCc3ccccc32)c1)N1CCN(CCO)CC1 showed inhibition equal to 1.12

====

# measured_on: Rac GTPase-activating protein 1 (Homo sapiens) (UniProt Q9H0H5)
# Sequence (Q9H0H5 whole entry, looked up): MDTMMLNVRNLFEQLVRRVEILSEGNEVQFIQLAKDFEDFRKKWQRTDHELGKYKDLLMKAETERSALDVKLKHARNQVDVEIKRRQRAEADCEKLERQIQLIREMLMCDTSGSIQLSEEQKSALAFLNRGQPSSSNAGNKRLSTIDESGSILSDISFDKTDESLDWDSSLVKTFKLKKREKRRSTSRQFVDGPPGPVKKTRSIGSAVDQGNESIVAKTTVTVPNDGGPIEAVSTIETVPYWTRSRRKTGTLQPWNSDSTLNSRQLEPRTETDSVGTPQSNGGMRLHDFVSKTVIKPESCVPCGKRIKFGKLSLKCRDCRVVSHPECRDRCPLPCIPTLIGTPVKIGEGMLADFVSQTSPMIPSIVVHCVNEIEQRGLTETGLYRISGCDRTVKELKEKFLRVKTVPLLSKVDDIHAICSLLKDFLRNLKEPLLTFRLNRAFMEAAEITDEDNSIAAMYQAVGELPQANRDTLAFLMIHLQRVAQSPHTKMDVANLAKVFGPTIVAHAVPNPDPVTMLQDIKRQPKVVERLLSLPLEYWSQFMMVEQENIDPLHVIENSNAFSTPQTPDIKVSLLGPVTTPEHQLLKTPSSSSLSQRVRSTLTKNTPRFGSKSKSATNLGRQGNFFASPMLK
# assay_comment: blockers of MgcRacGAP-driven Rac1 GTP hydrolysis – biochemical, ADP Hunter fluorescence, primary and confirmatory, confirmation (AID 624330);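 note: fluorescence reports GDP produced by GAP-driven GTP hydrolysis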
# condition_set: MgcRacGAP-stimulated Rac1 GTP hydrolysis, at 30 µM, hits give high values, GST-tagged Rac1 F28L mutant substrate
In all, about 340,000 compounds went through this assay and about 2,100 (0.62%) were called active. Not all results are given here. Potency and affinity values are given separately.
value_type: inhibition (%)
// units = %; emit number, no label

The compound COCCN(C(=O)COC(=O)c1ccc(Br)o1)c1c(N)n(Cc2ccccc2)c(=O)[nH]c1=O showed inhibition equal to 7.5

The compound Cc1ccc(S(=O)(=O)NCCc2c[nH]c3ccccc23)cc1 showed inhibition equal to 4.49

The compound Cc1cnc(C(=O)OCC(=O)c2ccc(-c3ccccc3)cc2)cn1 showed inhibition equal to -1.23

The compound C/C(=N\NC(=O)c1c[nH]c2ccccc12)c1ccc2c(c1)OCO2 showed inhibition equal to 12.8

The compound N/C(=N\OC(=O)c1ccco1)c1cccc([N+](=O)[O-])c1 showed inhibition equal to 6.07

The compound CCOc1cc(C(=O)Nc2ccc(N3CCOCC3)cc2)cc(Br)c1OC showed inhibition equal to 2.59

The compound Clc1nssc1=Nc1ccccc1 showed inhibition equal to 13.8

The compound CCN(CC)C(=O)CSc1nc2ncc(Br)cc2[nH]1 showed inhibition equal to 1.23

The compound O=C(CSc1nc(NS(=O)(=O)c2ccccc2)cc(=O)[nH]1)Nc1ccc(Cl)cc1 showed inhibition equal to -0.7

The compound CCCC(=O)Nc1cc(-c2nc3ncccc3o2)ccc1Cl showed inhibition equal to 6.17
